Test system: BT-549 breast
Assay: NCI-60 one-dose screen, 48 h (100 = growth as untreated, 0 = no growth, -100 = all killed)
Details: 10 µM unless noted
Procedure: Growth inhibition of the BT-549 human tumor cell line is measured as a screen for anti-cancer activity. Cells are grown in 96 well plates and exposed to the test compound for 48 hours. Compounds are tested at a single concentration, which is 10^-5 M for most compounds. The reported endpoint is percent growth (GI% or GIPRCNT), where numbers from 0 - 100% represent growth inhibition, and numbers from -100% - 0 represent cell death. For example, a value of 40 represents 60% growth inhibition. […]
About 83,000 compounds went through this panel and 20% of them were active in at least one assay; those are over-represented in the sample as a whole.
endpoint.label: growth (%)
Field format: number, assumed %, no unit text.

Use these answered entries as a reference point.
COc1ccc(N2C(=O)c3cc(Cl)ccc3NC2SCc2ccccc2)cc1 (centres undefined) :: 97.5
CC(=O)c1cc(C(=O)N2c3ccccc3Sc3ccccc32)n2ccc3ccccc3c12 :: 37
COc1cc2c(cc1OC)C(Sc1ccc(C)cc1)c1c(nc(N)c(C#N)c1N)O2 (centres undefined) :: 35
COc1ccc(C(=O)Nc2ncc(Cc3ccccc3Cl)s2)cc1 :: 54.8
NC(=O)c1cccc(C#CCNC[C@H]2C[C@@H](n3ccc4c(Cl)ncnc43)[C@H](O)[C@@H]2O)c1 :: 102

Query string: Value lookup for growth; key = Cc1cccc2c3c(sc12)C(c1ccc(Cl)cc1)c1c(nc(CC(=O)Nc2ccccc2)[nH]c1=O)O3 (centres undefined)
Result string: 77.1

Query string: Need growth of `COc1ccc(-c2cc(-c3ccc(Cl)cc3)c(C#N)c(=O)n2Cc2ccc(C(=O)O)cc2)cc1` , thanks.
Result string: 62.8

Query string: Bench note: what growth did `CCCCNNC(=O)c1ccc(-c2cccc(F)c2F)cc1` show?
Result string: 58.6

----------
Test system: HT29 colon
Assay: NCI-60 one-dose screen, 48 h (100 = growth as untreated, 0 = no growth, -100 = all killed)
Details: 10 µM unless noted
Experimental: Growth inhibition of the HT29 human tumor cell line is measured as a screen for anti-cancer activity. Cells are grown in 96 well plates and exposed to the test compound for 48 hours. Compounds are tested at a single concentration, which is 10^-5 M for most compounds. The reported endpoint is percent growth (GI% or GIPRCNT), where numbers from 0 - 100% represent growth inhibition, and numbers from -100% - 0 represent cell death. For example, a value of 40 represents 60% growth inhibition. […]
The panel holds about 83,000 compounds, 20% with a hit somewhere; the sample as a whole holds those more often.
endpoint.label: growth (%)
The figure you give is taken to be in %; do not add the unit.

Query string: Query (molecule): Cc1ccc2sc3c(c2c1)OC(N)=C(C#N)C3c1ccc(Cl)cc1 (configuration not stated) ; field requested: growth
Result string: 67.3

Query string: Give its growth value. Item: `CCOc1cccc(-c2nc3sccn3c2-c2ccnc(S(C)(=O)=O)n2)c1`
Result string: 99.6

Query string: Reported growth for `NC(N)=Nc1ccc(Oc2cccc(NC(N)=Nc3ccc(Br)cc3)c2)cn1` : what is it?
Result string: 59.7

Query string: Would you kindly share the measured growth for COc1ccc2c(c1)Oc1nc(N)c(C#N)c(N)c1C2Sc1ccc(C)cc1 (configuration not stated) ?
Result string: -26.8

Query string: Consider the molecule `O=C1C(c2ccccc2)=C(N2CCc3ccccc32)OC1(Cl)Cl` and give its measured growth.
Result string: 37.4

Query string: Please look up its growth: Cc1ccc(NC(=O)N[C@@H](Cc2cc(F)cc(F)c2)C(=O)NC2C(=O)N3C[C@H](O)C[C@H]3C(=O)N3CCCC[C@H]3C(=O)N[C@@H](CO)C(=O)N3C[C@H](C)C[C@H]3C(=O)O[C@H]2C)c(F)c1 (some centres not stated)
Result string: 42.8

Query string: Please look up its growth: `COc1cc(-c2nn(C(C)(C)C)cc2-c2ccnc(NCCCNS(=O)(=O)c3ccc(Cl)cc3)n2)ccc1Cl`
Result string: 49.4

Query string: What does the record list as growth for `N=c1c2cc(-c3ccccc3)oc2ncn1/N=C/c1ccc(Cl)cc1` ?
Result string: 98.7

Query string: Looking for the measured growth of `Clc1cccc(/C=N/Nc2nc(N/N=C/c3cccc(Cl)c3Cl)nc(N3CCCCC3)n2)c1Cl` , can you help?
Result string: 84.3

Query string: Quick one: growth for `COc1ccc(NC(=O)CSc2nnc(-c3ccc4nc(-c5ccc(OC)c(OC)c5)[nH]c4c3)o2)cc1OC` ?
Result string: 105

Query string: Record request: growth value, item C[C@@H]1C[C@H]2C(=O)O[C@@H](C)C(NC(=O)[C@H](Cc3cc(F)cc(F)c3)NC(=O)Nc3ccc(C4CC4)cc3F)C(=O)N3CCC[C@H]3C(=O)N3CCCC[C@H]3C(=O)N[C@@H](CO)C(=O)N2C1 (some centres not stated)
Result string: 25.4

Query string: What does the data say about its growth? Entry: CCOC(=O)C(=O)CC(=O)N1C(=S)NC(=O)C1CC(C)C (configuration not stated)
Result string: 113

----------
test system: UACC-62 melanoma; test: NCI-60 one-dose screen, 48 h (100 = growth as untreated, 0 = no growth, -100 = all killed); settings: 10 µM unless noted
About 83,000 compounds went through this panel and 20% of them were active in at least one assay; those are over-represented in the sample as a whole.
endpoint.label: growth (%)
Number in %, nothing else.

Example entries and their recorded answers appear below.
CC[C@]12C=CCN3CC[C@@]4(c5cc(NC(=O)COc6cc(O)c7c(=O)cc(-c8ccccc8)oc7c6)c(OC)cc5N(C)[C@H]4[C@@](O)(C(=O)OC)[C@@H]1OC(C)=O)[C@@H]32 :: -87.3
O=C(Cn1cc[n+](CC(=O)c2ccc(-c3ccccc3)cc2)c1)Nc1cccc2cccnc12 :: 59.1
O=C(NCc1ncc[nH]1)c1ccc(-c2nc3ccc4[nH]ncc4c3c3c2CCCC3)cc1 :: 4.94
CC(C)c1ccc(NCc2cn(-c3ccc(C(=O)O)cc3)nc2-c2cc(C(F)(F)F)cc(C(F)(F)F)c2)cc1 :: 81.9
CC(C)(C)c1ccc(C(=O)Nc2nc3ccc(O)cc3s2)cc1 :: 45.1
CCc1ccc(SC2c3ccc(N(CC)CC)cc3Oc3nc(N)c(C#N)c(N)c32)cc1 (centres undefined) :: -32.7
CCO/C=N/C1=C(C#N)C(c2ccc(F)cc2)c2sc3c(C)cccc3c2O1 (centres undefined) :: 12.8
CNC(=O)c1cc(Oc2ccc3nc(NC(=O)c4ccc(N5CCOCC5)c(C(F)(F)F)c4)sc3c2)ccn1 :: 47.7
CCOC(=O)C(=O)/C(=C\c1ccc(Cl)cc1)C(=O)N1C(=S)NC(=O)C1CC(C)C (centres undefined) :: 91.5
CCCn1cnc2c(c1=N)C(c1ccc(F)cc1)c1sc3c(CC)cccc3c1O2 (centres undefined) :: 14

Query string: State its growth on UACC-62 melanoma: `O=C(Nc1ccc2c(ccn2Cc2ccccn2)c1)c1ccnnc1`
Result string: 86.3

----------
tested on: A549/ATCC NSCLC; assay: NCI-60 one-dose screen, 48 h; settings: 10 µM unless noted
This is part of a sample that, as a whole, favours compounds with a hit. Of some 83,000 tested, about 20% had one in any assay. The source made the active and inactive calls. The calls were made as follows: active = growth percent below 10; inactive = the rest.
Response enum: active, inactive

Record excerpt, results attached:
Cc1cccc2c3c(sc12)C(c1ccc(F)cc1)C(C#N)=C(/N=C/c1ccc(Cl)cc1)O3 (centres undefined) :: inactive
N#Cc1cccc(CN2CCc3ncn(Cc4ccc(Cl)cc4)c(=O)c3C2)c1 :: inactive
N/C(=N\C(N)=N\c1nc2ccccc2s1)c1cccc(F)c1 :: inactive
COCCNc1ccc2ncc(C#Cc3cncc(C(=O)Nc4ccc(CN5CCN(C)CC5)c(C(F)(F)F)c4)c3)n2n1 :: active

Query string: What was the test verdict on `Cc1cc(C)cc(C(=O)Nc2cccc(C#Cc3cccc4[nH]nc(N)c34)c2)c1` ?
Result string: inactive

Query string: I'd appreciate the recorded outcome for `Nc1nc(Nc2ccccc2SSc2ccccc2Nc2nc(N)nc(-c3ccccc3)n2)nc(-c2ccccc2)n1` from this test.
Result string: active

Query string: Given `COc1ccc2c(c1)c(CC(=O)[Se]CCC#N)c(C)n2C(=O)c1ccc(Cl)cc1` , state the outcome it received in this test.
Result string: active

Query string: Which outcome was entered for the molecule `COc1ccc(-n2c(SCc3n[nH]c(=S)o3)nc3ccc(Cl)cc3c2=O)cc1` in this test?
Result string: inactive

Query string: What classification did `CC1=NC2=NN3C(=NN2C(c2ccccc2)=C1)N=NC(c1ccc(Br)cc1)=C3c1ccc(Br)cc1` end up with in this test?
Result string: inactive

Query string: Tell me the recorded outcome of this test for `O=c1[nH]c(Sc2sc3ccc(Cl)cc3c2CBr)nc(=S)[nH]1` .
Result string: inactive

Query string: Test call for this molecule, please: `COc1ccc(-n2c(SCc3nnc(NC(=O)c4ccc(Br)cc4)s3)nc3cc(OC)c(OC)cc3c2=O)cc1`
Result string: inactive
